# study target: T1, biotinylated CRH (human and mouse, not fully specified; biotinylated, position not stated)
# T1 construct: also called Biotin-CRH; biotin-labeled CRH
# T1 peptide: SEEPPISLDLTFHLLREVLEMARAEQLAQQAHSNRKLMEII
# assay comment: Octet BLI, biotinylated CRH on SA sensor
observation type: pKd
// pKd here means minus log10 of the molar concentration (mol/L)

Requested read-out: pKd. Entry: PR006145 (antibody, human IgG1, kappa, V domains shown, PTM-removal variant of PR004290) VH: EVQLVESGGVLVQPGGSLRLSCAASGFTFSSYWMTWVRQAPGKGLEWVANIKQEGSEKYYVDSVKGRFTISRDNAKNSLFLQMNSLRAEDTAVYYCARTLIFDYWGQGTLVTVSS VL: DIVMTQSPLSLPVTPGEPASISCRSSQSLLHSTGYSSLEWYLQKPGQSPQLLIYLGSNRASGVPDRFSGSGSGTDFTLKISRVEAEDVGIYYCMQTLQTPITFGQGTRLEIKR
9.52

Requested read-out: pKd. Entry: PR005662 (antibody, human IgG1, kappa, V domains shown, PTM-removal variant of PR004290) VH: EVQLVESGGVLVQPGGSLRLSCAASGFTFSSYWMTWVRQAPGKGLEWVANIKQDASEKYYVDSVKGRFTISRDNAKNSLFLQMNSLRAEDTAVYYCARTLIFDYWGQGTLVTVSS VL: DIVMTQSPLSLPVTPGEPASISCRSSQSLLHSTGYQSLEWYLQKPGQSPQLLIYLGSNRASGVPDRFSGSGSGTDFTLKISRVEAEDVGIYYCMQTLQTPITFGQGTRLEIKR
9.68
